ASSAYED_TARGET: T1, Helicoverpa armigera chitin synthase (Helicoverpa armigera)
T1 construct: the tag is not part of the printed entry; also called CHS; target CHS antigen
T1 chain: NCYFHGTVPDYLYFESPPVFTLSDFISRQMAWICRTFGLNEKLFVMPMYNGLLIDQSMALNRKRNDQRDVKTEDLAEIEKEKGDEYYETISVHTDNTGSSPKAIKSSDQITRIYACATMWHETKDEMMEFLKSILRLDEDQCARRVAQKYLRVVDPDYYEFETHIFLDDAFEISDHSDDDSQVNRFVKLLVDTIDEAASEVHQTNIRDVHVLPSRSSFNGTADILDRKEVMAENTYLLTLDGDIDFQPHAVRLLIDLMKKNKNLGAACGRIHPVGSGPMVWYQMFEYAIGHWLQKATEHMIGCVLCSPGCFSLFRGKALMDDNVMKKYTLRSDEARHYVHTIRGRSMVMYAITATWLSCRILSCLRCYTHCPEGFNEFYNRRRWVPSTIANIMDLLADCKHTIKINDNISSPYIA
ASSAY_TEXT: ELISA, plate coated with 10 ug/ml target protein, 2 ug/ml nanobody, anti-VHH-HRP, A450
MEASUREMENT_TYPE: binding result

{"BINDER": "CHS13 (VHH, Llama nanobody, His-tagged, expressed in E. coli SHuffle T7; also called anti-CHS nanobody CHS13) VHH: QVQLQESGGGLVQAGGSLRLSCTVSGGTFTTYTMAWFRQAPGKEREFVAQISWSGGITAYLDSVKGRFTISRDNAKNTVYLQMNSLKPEDTAVYYCARRGRKYEDDYWGQGTQVTVSS", "MEASUREMENT_TYPE": "binding result", "READING": "binds"}
{"BINDER": "CHS18 (VHH, Llama nanobody, His-tagged, expressed in E. coli SHuffle T7; also called anti-CHS nanobody CHS18) VHH: QVQLQESGGGLVQAGGSLRLSCTASGRTFSSYSMAWFRQASGKEREIVAAVSRFGKFKYYADSVKGRFTISRDNAKNTLYLQMNSLKPEDTAVYYCAKTDGSSWYLDYWGQGTQVTVSS", "MEASUREMENT_TYPE": "binding result", "READING": "binds"}
{"BINDER": "CHS02A (VHH, Llama nanobody, His-tagged, expressed in E. coli SHuffle T7; also called CHS2a; anti-CHS nanobody CHS02A) VHH: QVQLQESGGGLVQAGGSLRLSCAASRGTFSRYVMGWFRQGPGKEREFVAGISWSGISTYYADFVKGRFTISRDNAKNTVYLQMNSLKPEDTAVYYCAADPGRGYDYWGQGTQVTVSS", "MEASUREMENT_TYPE": "binding result", "READING": "binds"}
